# test target: F508del/F508del CFTR (Homo sapiens, UniProt P13569, DEL508-508)
# Construct: cells isolated from CF patients with the homozygous mutation; endogenous in cells
# Sequence (P13569 with tags, fused parts or gaps DEL508-508): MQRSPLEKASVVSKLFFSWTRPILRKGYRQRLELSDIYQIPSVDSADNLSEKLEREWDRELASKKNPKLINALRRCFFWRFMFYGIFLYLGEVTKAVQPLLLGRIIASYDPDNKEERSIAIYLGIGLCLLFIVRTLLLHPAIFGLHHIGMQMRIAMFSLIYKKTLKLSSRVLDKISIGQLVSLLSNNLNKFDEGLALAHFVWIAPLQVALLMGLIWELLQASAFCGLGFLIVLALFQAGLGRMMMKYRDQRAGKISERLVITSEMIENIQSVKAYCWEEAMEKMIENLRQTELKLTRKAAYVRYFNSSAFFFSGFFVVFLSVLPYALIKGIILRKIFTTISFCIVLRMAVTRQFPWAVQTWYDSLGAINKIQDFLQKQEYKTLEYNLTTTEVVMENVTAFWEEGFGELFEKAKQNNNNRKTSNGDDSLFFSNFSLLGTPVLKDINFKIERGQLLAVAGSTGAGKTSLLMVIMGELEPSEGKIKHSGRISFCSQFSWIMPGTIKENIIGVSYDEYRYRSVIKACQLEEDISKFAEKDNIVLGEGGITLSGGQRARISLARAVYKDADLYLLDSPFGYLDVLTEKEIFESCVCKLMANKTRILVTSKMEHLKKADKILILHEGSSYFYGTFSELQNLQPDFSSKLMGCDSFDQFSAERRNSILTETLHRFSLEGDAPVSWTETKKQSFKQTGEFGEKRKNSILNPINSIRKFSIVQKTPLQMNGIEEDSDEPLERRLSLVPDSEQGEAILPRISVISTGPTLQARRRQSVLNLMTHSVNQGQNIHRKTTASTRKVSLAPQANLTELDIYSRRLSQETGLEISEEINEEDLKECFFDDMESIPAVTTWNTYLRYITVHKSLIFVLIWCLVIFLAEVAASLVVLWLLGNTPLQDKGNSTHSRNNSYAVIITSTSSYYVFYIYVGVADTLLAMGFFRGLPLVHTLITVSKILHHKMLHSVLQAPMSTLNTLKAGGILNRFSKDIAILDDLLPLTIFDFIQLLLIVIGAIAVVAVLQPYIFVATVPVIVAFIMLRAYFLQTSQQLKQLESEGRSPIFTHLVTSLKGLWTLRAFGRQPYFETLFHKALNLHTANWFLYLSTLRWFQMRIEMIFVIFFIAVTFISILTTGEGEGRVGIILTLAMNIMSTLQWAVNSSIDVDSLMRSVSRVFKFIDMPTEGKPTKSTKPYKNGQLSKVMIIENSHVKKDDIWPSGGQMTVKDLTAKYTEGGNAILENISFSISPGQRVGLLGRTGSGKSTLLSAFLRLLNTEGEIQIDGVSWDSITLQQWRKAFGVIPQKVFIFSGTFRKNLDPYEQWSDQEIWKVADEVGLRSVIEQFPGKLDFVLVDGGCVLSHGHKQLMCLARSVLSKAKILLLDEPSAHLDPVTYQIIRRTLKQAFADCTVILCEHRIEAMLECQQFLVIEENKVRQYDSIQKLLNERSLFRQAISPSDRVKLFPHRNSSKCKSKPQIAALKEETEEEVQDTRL
# measurement protocol: Trans-Epithelial Current Clamp (TECC) assay using primary human bronchial epithelial cells
# test conditions: primary hBE cells homozygous F508del/F508del; test C2 corrector with co-corrector and potentiator, 18-24 hours at 37° C.; equivalent CFTR current (IEQ)/AUC
test readout: EC50 (nM)

Below, each entry is followed by its recorded EC50 result.
• COc1ccc(C)cc1[C@@]1(C(=O)NS(=O)(=O)c2cccc3nc(C)ccc23)C[C@H]1c1cccnc1OC [Example 49] = 35.8
• COc1ccc(C)cc1[C@@]1(C(=O)NS(=O)(=O)c2cccc3nc(C)ccc23)C[C@H]1c1cncc(F)c1 (racemic) [Example 42] = 182
• COc1ccc(C)cc1C1(C(=O)NS(=O)(=O)c2cccc3nc(C)ccc23)CC1c1ccc(C(F)(F)F)cc1 (racemic) [Example 5] = 3.5
• COc1ccc(C)cc1[C@]1(C(=O)NS(=O)(=O)c2cccc3nc(C)ccc23)C[C@@H]1c1ccccc1 (single isomer, unassigned) [Example 3] = 0.992
• COc1ccc(C)cc1[C@@]1(C(=O)NS(=O)(=O)c2cccc3nc(C)ccc23)C[C@H]1c1ccccc1C(F)(F)F (single isomer, unassigned) [Example 31] = 6.2

[P] COc1ccc(C)cc1[C@]1(C(=O)NS(=O)(=O)c2cccc3nc(C)ccc23)C[C@@H]1c1cccc(C)n1 [Example 96]
[Q] COc1cccc([C@@H]2C[C@]2(C(=O)NS(=O)(=O)c2cccc3nc(C)ccc23)c2cc(C)ccc2OC)c1 (racemic) [Example 15]
[R] CCOc1ccc([C@@H]2C[C@]2(C(=O)NS(=O)(=O)c2cccc3nc(C)ccc23)c2cc(C)ccc2OC)cn1 [Example 59]
[S] COc1cncc([C@H]2C[C@@]2(C(=O)NS(=O)(=O)c2cccc3nc(C)ccc23)c2cc(C)ccc2OC)c1 (single isomer, unassigned) [Example 52]
[T] COc1ccc(C)cc1[C@@]1(C(=O)NS(=O)(=O)c2cccc3nc(C)ccc23)CC1c1ccc(C)nc1 (stereo in doubt) [Example 10]
Ascending by EC50, please. Reply with the item labels sorted in the order that was asked for.
Q, P, S, R, T
(Q: 0.84 nM, P: 7.8 nM, S: 26.6 nM, R: 63.8 nM, T: 804 nM)

[1] COc1ccc(C)cc1[C@]1(C(=O)NS(=O)(=O)c2cccc3nc(C)ccc23)C[C@@H]1c1cccc(N(C)C)n1 [Example 60]
[2] CCOc1ccc([C@H]2C[C@@]2(C(=O)NS(=O)(=O)c2cccc3nc(C)ccc23)c2cc(C)ccc2OC)cn1 [Example 58]
[3] COc1ccc(C)cc1[C@]1(C(=O)NS(=O)(=O)c2cccc3nc(C)ccc23)C[C@@H]1c1cccc(C(F)(F)F)c1 (racemic) [Example 12]
[4] COc1ccc(C)cc1[C@@]1(C(=O)NS(=O)(=O)c2cccc3nc(C)ccc23)C[C@H]1c1cnc(C)c(F)c1 (single isomer, unassigned) [Example 101]
[5] COc1ccc(C)cc1[C@@]1(C(=O)NS(=O)(=O)c2cccc3nc(C)ccc23)C[C@H]1c1ccc(C(F)(F)F)cc1 (single isomer, unassigned) [Example 19]
Ascending by EC50, please. Reply with the item labels sorted in the order that was asked for.
3, 1, 5, 2, 4

[A] COc1ccc(C)cc1[C@]1(C(=O)NS(=O)(=O)c2cccc3nc(C)ccc23)C[C@@H]1c1cccc(C(F)(F)F)c1 (single isomer, unassigned) [Example 23]
[B] COc1ccc(C)cc1[C@@]1(C(=O)NS(=O)(=O)c2cccc3nc(C)ccc23)C[C@H]1c1ccc(C)nc1OC (single isomer, unassigned) [Example 85]
[C] COc1ccc(C)cc1[C@@]1(C(=O)NS(=O)(=O)c2cccc3nc(C)ccc23)C[C@H]1c1cnc(C(C)C)cn1 (racemic) [Example 61]
[D] COc1ccc(C)cc1[C@]1(C(=O)NS(=O)(=O)c2cccc3nc(C)ccc23)C[C@@H]1c1cccc(C(F)F)n1 [Example 77]
[E] COc1cccc([C@H]2C[C@@]2(C(=O)NS(=O)(=O)c2cccc3nc(C)ccc23)c2cc(C)ccc2OC)c1 (single isomer, unassigned) [Example 28]
Ascending by EC50, please. Reply with the item labels sorted in the order that was asked for.
D, E, A, B, C
